# Test system: Fer (mouse);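 further: 11-residue human phosphosite peptides and single-mutation variants displayed on the E. coli surface, counted by deep sequencing, each peptide's frequency after selection divided by its frequency in the unselected input library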;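 further: frequency after pTyr selection over input frequency; kinase dosed for 20-30% of maximal phosphorylation in three min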
# Assay protocol: phosphorylation enrichment, bacterial display (enrichment ratio); higher = better substrate or ligand; peptides without Tyr show the background
Measurement type: phosphorylation enrichment
Could you respond with only the numeric value?

Ask | GET /values?readout=phosphorylation enrichment&item= KTTILHKLKLG [ARF1_Y35_Y35H]
Reply | 0.435

Ask | State the recorded phosphorylation enrichment for this entry: PQGVGYPQQQQ [EP300_Y2219_P2221Q]
Reply | 0.441

Ask | What phosphorylation enrichment value was documented for this sequence, FRPPYYHRDCM [HGD_Y334_N337D] ?
Reply | 0.499

Ask | Could you tell me which phosphorylation enrichment is on file for DYDHSYYFIAT [ESD_Y262_G257D] ?
Reply | 1.49

Ask | # get_value(readout='phosphorylation enrichment', item= SENYTYIWWLN [PSG4_Y271_K267E] )
Reply | 0.694

Ask | For the sequence YQEPVYSVAFS [TBL1X_Y509_H504Y] , what phosphorylation enrichment is on record?
Reply | 17.5

Ask | Value lookup for phosphorylation enrichment; key = MVIPNYSSRTE [UROC1_Y185]
Reply | 0.435

Ask | If you can, please state the reported phosphorylation enrichment value of HESEIYGKVCF [CSRP3_Y57_C58G_YF] .
Reply | 6.89

Ask | Report phosphorylation enrichment for NTGLDYIKFTW [HRH1_Y386] please.
Reply | 0.402

Ask | Entry under review: KTGDYYDLYGG [PTPN11_Y63_N58K] . Reported phosphorylation enrichment?
Reply | 0.829

Ask | What phosphorylation enrichment value was documented for this sequence, DFPGNYSGFDD [POLR1C_Y33_YF] ?
Reply | 0.408

Ask | # lookup: phosphorylation enrichment of LGIDRYHAIVY [NPSR1_Y147_S143G]
Reply | 0.408

Ask | Which phosphorylation enrichment value belongs to RISGVYKLPPD [ANGPTL7_Y145] ?
Reply | 0.5

Ask | Using the record for CSHKFYGKQCC [ADAMTS16_Y1211] , report its phosphorylation enrichment.
Reply | 0.448

Ask | What does the record list as phosphorylation enrichment for QGFDTYFGYLL [ARSB_Y165_R160Q] ?
Reply | 6.45

Ask | Data request, read-out phosphorylation enrichment, for QNAGDYYDLYG [PTPN11_Y62_T59A]
Reply | 1.56

Ask | Report phosphorylation enrichment for QSQQAYQEAFE [YWHAZ_Y149] please.
Reply | 0.597

Ask | Reported phosphorylation enrichment for PTTKTYFPHFY [HBA1_Y43_D48Y] : what is it?
Reply | 0.825
